target: BRM (Homo sapiens); construct: In-Cell Western Screen of BRM Degradation in SW1573 Cells; endogenous in cells; host or cells: SW1573; assay: In-cell Western screen of BRM degradation in SW1573 cells (Dmax and DC50); type: cell-based; details: BRM degradation, SW1573 cells; Table 2D; read-out: *DC50
Sequence (P51531 whole entry): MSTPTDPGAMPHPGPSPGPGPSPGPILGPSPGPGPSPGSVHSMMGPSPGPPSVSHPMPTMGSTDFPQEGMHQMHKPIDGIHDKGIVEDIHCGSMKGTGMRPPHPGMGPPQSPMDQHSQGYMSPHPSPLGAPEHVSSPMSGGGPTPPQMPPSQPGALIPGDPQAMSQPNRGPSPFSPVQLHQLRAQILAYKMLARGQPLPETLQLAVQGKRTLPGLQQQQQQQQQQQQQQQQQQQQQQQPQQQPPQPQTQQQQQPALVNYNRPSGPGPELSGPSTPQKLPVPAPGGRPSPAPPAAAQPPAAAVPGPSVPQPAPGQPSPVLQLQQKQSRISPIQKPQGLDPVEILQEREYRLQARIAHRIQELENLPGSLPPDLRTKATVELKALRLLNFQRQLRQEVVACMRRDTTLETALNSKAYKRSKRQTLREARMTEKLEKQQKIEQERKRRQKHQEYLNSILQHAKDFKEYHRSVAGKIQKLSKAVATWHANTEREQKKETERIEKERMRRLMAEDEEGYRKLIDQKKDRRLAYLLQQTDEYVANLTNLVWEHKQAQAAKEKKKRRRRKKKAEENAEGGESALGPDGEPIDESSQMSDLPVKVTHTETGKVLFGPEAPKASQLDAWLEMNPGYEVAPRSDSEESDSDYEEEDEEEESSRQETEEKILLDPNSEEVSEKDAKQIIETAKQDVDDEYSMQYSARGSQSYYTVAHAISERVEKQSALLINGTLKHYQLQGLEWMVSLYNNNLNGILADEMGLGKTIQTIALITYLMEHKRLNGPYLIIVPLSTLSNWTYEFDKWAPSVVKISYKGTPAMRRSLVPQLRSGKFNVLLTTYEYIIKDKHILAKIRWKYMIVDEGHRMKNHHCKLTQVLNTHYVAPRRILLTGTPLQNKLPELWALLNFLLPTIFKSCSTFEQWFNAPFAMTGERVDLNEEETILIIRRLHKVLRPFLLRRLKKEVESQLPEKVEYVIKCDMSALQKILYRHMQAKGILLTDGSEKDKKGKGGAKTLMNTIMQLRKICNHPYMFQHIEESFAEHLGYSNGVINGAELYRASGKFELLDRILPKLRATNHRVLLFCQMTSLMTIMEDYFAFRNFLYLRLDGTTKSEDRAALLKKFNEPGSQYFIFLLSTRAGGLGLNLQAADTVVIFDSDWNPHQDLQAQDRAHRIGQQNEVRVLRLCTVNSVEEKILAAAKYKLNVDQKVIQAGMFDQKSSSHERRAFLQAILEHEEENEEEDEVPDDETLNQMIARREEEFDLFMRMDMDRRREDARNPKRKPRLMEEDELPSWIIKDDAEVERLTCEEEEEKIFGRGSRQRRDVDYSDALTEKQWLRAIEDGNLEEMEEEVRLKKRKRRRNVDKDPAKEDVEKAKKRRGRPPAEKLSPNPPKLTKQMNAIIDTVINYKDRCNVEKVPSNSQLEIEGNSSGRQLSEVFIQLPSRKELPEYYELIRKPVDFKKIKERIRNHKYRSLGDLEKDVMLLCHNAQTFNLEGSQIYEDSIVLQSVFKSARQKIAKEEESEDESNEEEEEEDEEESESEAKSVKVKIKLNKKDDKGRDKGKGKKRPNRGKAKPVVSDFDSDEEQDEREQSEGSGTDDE
Assignment: determine reported DC50 for the given compounds.

- compound: "Cc1ncsc1-c1ccc([C@H](C)NC(=O)[C@@H]2C[C@@H](O)CN2C(=O)[C@@H](c2cc(N3CCC(CN4CCN(CC5CC(Oc6cc(N7C8CC[C@@H]7CN(c7cc(-c9ccccc9O)nnc7N)C8)ccn6)C5)CC4)CC3)no2)C(C)C)cc1 (some centres unmarked) [compound 608]"
  reported.measurement: "< 2.5 nM"
- compound: "Cc1ncsc1-c1ccc([C@H](C)NC(=O)[C@@H]2C[C@@H](O)CN2C(=O)[C@H](c2cc(OCCC3CCN(C[C@H]4C[C@H](N5CCC(CN6CCOC7(CCN(c8cc(-c9ccccc9O)nnc8N)CC7)C6)CC5)C4)CC3)no2)C(C)C)cc1 [compound 597]"
  reported.measurement: "10 to 30 nM"
- compound: "Cc1cc([C@H](C(=O)N2C[C@H](O)C[C@H]2C(=O)N[C@@H](C)c2ccc(-c3scnc3C)cc2)[C@H](C)COCCCn2cc(-c3cc(-c4ccccc4O)nnc3N)cn2)on1 [compound 560]"
  reported.measurement: "> 30 nM"
- compound: "Cc1ncsc1-c1ccc([C@H](C)NC(=O)[C@@H]2C[C@@H](O)CN2C(=O)[C@@H](c2cc(OCC[C@H]3CCN(C[C@H]4C[C@H](Oc5cc(N6C7CCC6CN(c6cc(-c8ccccc8O)nnc6N)C7)ccn5)C4)C[C@@H]3C)no2)C(C)C)cc1 (racemic) [compound 577]"
  reported.measurement: "< 2.5 nM"
- compound: "Cc1nccn1-c1ccc([C@H](C)NC(=O)[C@@H]2C[C@@H](O)CN2C(=O)[C@H](c2cc(N3CCN(C[C@H]4C[C@H](Oc5cc(N6C7CCC6CN(c6cc(-c8ccccc8O)nnc6N)C7)ccn5)C4)CC3)no2)C(C)C)cc1 [compound 575]"
  reported.measurement: "10 to 30 nM"

# batch: return DC50 for each of the 5 compounds below
1. Cc1cc([C@H](C(=O)N2C[C@H](O)C[C@H]2C(=O)N[C@@H](C)c2ccc(-c3scnc3C)cc2)[C@H](C)COCCCCn2cc(-c3cc(-c4ccccc4O)nnc3N)cn2)on1 [compound 558]
2. Cc1ncsc1-c1ccc([C@H](C)NC(=O)[C@@H]2C[C@@H](O)CN2C(=O)[C@H](c2cc(OCC[C@@H]3CCN(C[C@H]4C[C@H](Oc5cc(N6C7CCC6CN(c6cc(-c8ccccc8O)nnc6N)C7)ccn5)C4)C[C@@H]3C)no2)C(C)C)cc1 (racemic) [compound 543]
3. Cc1ncsc1-c1ccc([C@@H](NC(=O)[C@@H]2C[C@@H](O)CN2C(=O)[C@H](c2cc(N3CCC(CN4CCC(O[C@H]5C[C@H](Oc6cc(N7C8CCC7CN(c7cc(-c9ccccc9O)nnc7N)C8)ccn6)C5)CC4)CC3)no2)C(C)C)C(=O)N(C)C2CCC2)cc1 [compound 612]
4. Cc1ncsc1-c1ccc([C@H](C)NC(=O)[C@@H]2C[C@@H](O)CN2C(=O)[C@@H](c2cc(N3CCC(CN4CCC(CCOc5cc(N6C7CCC6CN(c6cc(-c8ccccc8O)nnc6N)C7)ccn5)CC4)CC3)no2)C(C)C)cc1 [compound 604]
5. Cc1ncsc1-c1ccc([C@H](C)NC(=O)[C@@H]2C[C@@H](O)CN2C(=O)[C@@H](c2cc(OCCN3CCC(CCOc4cc(N5C6CCC5CN(c5cc(-c7ccccc7O)nnc5N)C6)ccn4)CC3)no2)C(C)C)cc1 [compound 554]

Result string:
> 30 nM
> 30 nM
< 2.5 nM
< 2.5 nM
< 2.5 nM

Query string: # return recorded DC50 for input Cc1nccn1-c1ccc([C@H](C)NC(=O)[C@@H]2C[C@@H](O)CN2C(=O)[C@@H](c2cc(N3CCN(C[C@H]4C[C@H](Oc5cc(N6C7CCC6CN(c6cc(-c8ccccc8O)nnc6N)C7)ccn5)C4)CC3)no2)C(C)C)cc1 [compound 576]
Result string: < 2.5 nM

Origin of measurements: patent US12539292B2
